# System: P388 leukemia ip, CD2F1 mice, survival T/C
# METHOD: NCI In Vivo Anticancer Drug Screen. Data for tumor model P388 Leukemia (intraperitoneal) in CD2F1 (CDF1) mice
# TEST_CONDITIONS: endpoint: median survival time; dose: 400.0 mg/kg/injection; schedule: Q04DX002 (ip); vehicle: saline; higher = longer survival
Toxic doses and inconclusive results are not listed.
QUANTITY: T/C

{"COMPOUND": "COc1ccc(C(=O)CCS(=O)O)cc1", "T/C": "99 % of control"}
{"COMPOUND": "Clc1nc(-c2ccccc2)nc(-c2ccccc2)n1", "T/C": "109 % of control"}
{"COMPOUND": "CC1(C)C[C@H](O)[C@H]2O[C@@]2(C)C1", "T/C": "105 % of control"}
{"COMPOUND": "NC1CCc2cc(O)c(O)cc2C1 (centres undefined)", "T/C": "109 % of control"}
{"COMPOUND": "CCCN1C(=O)CC(=O)N(CCC)P1(=O)OCC", "T/C": "101 % of control"}

Ask: State the recorded T/C for this entry: `CC(C)=NN/C=N/S(C)(=O)=O`
Result: 104 % of control

Ask: State the recorded T/C for this entry: `O=C(Cc1ccncc1)c1cccnc1`
Result: 105 % of control

Ask: State the recorded T/C for this entry: `CCN(CC)S(=O)(=O)C(=[N+]=[N-])P(=O)(OC)OC`
Result: 100 % of control

Ask: State the recorded T/C for this entry: `CNC(=S)N/N=C\C(C)=N/N1CCCCCC1`
Result: 93 % of control
